tested on: Nucleic Acid; assay: Association constant against polynucleotide poly (dG-dC); type: nucleic-acid assay
Please note: yes (1) applies when K app is 20000 M⁻¹ or greater, and no (0) applies otherwise.

# count of solved cases: 5
Cn1cc(NC(=O)c2cc([N+](=O)[O-])cn2C)cc1C(=O)NCCCNCCCCN : yes (1)
CC(NC(=O)c1cc(NC(=O)c2cc(NC(=O)CNC(=N)N)cn2C)cn1C)C(=O)O (stereo unspecified) : no (0)
CC(NC(=O)c1cc(NC(=O)c2cc(NC(=O)CNC(=N)N)cn2C)cn1C)C(=O)NC(C)C(=O)OC(C)(C)C (stereo unspecified) : no (0)
Cn1cc(NC(=O)c2cc(NC(=O)c3cc(NC=O)cn3C)cn2C)cc1C(=O)NCCC(=N)N : yes (1)
Cn1cc(NC(=O)c2cc(NC(=O)CNC(=N)N)cn2C)cc1C(=O)NCCC(=N)N : yes (1)

We next turn to a different compound, shown below.
Ask: Check the entry `C[C@H](NC(=O)c1cc(NC(=O)c2cc([N+](=O)[O-])cn2C)cn1C)C(=O)N[C@@H](C)C(=O)N[C@@H](C)C(=O)OC(C)(C)C` : does K app equal or exceed 20000 M⁻¹?
Reply: no (0)

###

Give Ratio for every item shown.
system: Nucleic Acid; assay: Ratio of association constant of poly (dA-dT) and poly (dG-dC); assay type: nucleic-acid assay
Answers are plain numbers.

Known Ratio results, listed for orientation:
CC(NC(=O)c1cc(NC(=O)c2cc([N+](=O)[O-])cn2C)cn1C)C(=O)OC(C)(C)C (centres undefined) : 0.5
CC(NC(=O)C(C)NC(=O)c1cc(NC(=O)c2cc(NC(=O)CNC(=N)N)cn2C)cn1C)C(=O)O (centres undefined) : 1

// next entry
Ask: Need Ratio of `Cn1cc(NC(=O)c2cc(NC(=O)c3cc(NC=O)cn3C)cn2C)cc1C(=O)NCCC(=N)N` , thanks.
Reply: 3400

###

tested on: Vesicular stomatitis virus; experiment: Minimum inhibitory concentration required to reduce vesicular stomatitis virus induced cytopathogenicity by 50% in primary rabbit kidney cells (PRK); format: functional
MEASUREMENT LABEL: MIC

Recorded MIC, per entry:
CC(NC(=O)c1cc(NC(=O)c2cc([N+](=O)[O-])cn2C)cn1C)C(=O)OC(C)(C)C (centres undefined) : > 40 mg/L
Cn1c(C(=O)NCCC(=N)N)ccc1[N+](=O)[O-] : > 400 mg/L
Cn1cc([N+](=O)[O-])cc1C(=O)NCCC#N : > 400 mg/L

For every item in the list below, what is its measured MIC?
1. Nc1ncnc2c1ncn2C[C@H](O)CO [(S)-DHPA]
2. COC(=O)c1cc(NC(=O)c2cc([N+](=O)[O-])cn2C)cn1C
3. Cn1cc(NC(=O)c2cc([N+](=O)[O-])cn2C)cc1C(=O)O
4. Cn1cc(NC(=O)c2cc([N+](=O)[O-])cn2C)cc1C(=O)NCCC#N
5. Cn1c(C(=O)NCCC#N)ccc1[N+](=O)[O-]
6. C[C@H](NC(=O)[C@H](C)NC(=O)[C@H](C)NC(=O)c1cc(NC(=O)c2cc(NC(=O)CNC(=N)N)cn2C)cn1C)C(=O)O
7. CC(NC(=O)c1cc(NC(=O)c2cc(NC(=O)CNC(=N)N)cn2C)cn1C)C(=O)NC(C)C(=O)OC(C)(C)C (centres undefined)
8. CC(NC(=O)c1cc(NC(=O)c2cc(NC(=O)CNC(=N)N)cn2C)cn1C)C(=O)O (centres undefined)

Reply:
1. 70 mg/L
2. > 40 mg/L
3. > 400 mg/L
4. > 10 mg/L
5. 300 mg/L
6. > 400 mg/L
7. > 200 mg/L
8. > 200 mg/L

###

Consider the following compounds; for each one, report its K app.
tested on: Nucleic Acid; test: Association constant against the polynucleotide poly(dA-dT); format: nucleic-acid assay
One number for each entry, in M⁻¹.

Cn1cc(NC(=O)c2cc([N+](=O)[O-])cn2C)cc1C(=O)NCCC(=N)N : 12000

Moving on to the next compound.
Ask: Please state recorded K app (tested on Nucleic Acid) of `Cn1cc([N+](=O)[O-])cc1C(=O)NCCCNCCCCN`
Reply: 1e+06

###

system: Nucleic Acid; test: Association constant against the polynucleotide poly (dA-dT).; type: nucleic-acid assay
MEASUREMENT LABEL: K app (M⁻¹)
One number for each entry, in M⁻¹.

Cn1cc(NC(=O)c2cc(NC(=O)CNC(=N)N)cn2C)cc1C(=O)NCCCNCCCCN : 2e+07
Cn1cc(NC(=O)c2cc(NC(=O)CNC(=N)N)cn2C)cc1C(=O)NCCC(=N)N : 7.3e+08

Ask: Requested field: K app. Item: CC(NC(=O)c1cc(NC(=O)c2cc([N+](=O)[O-])cn2C)cn1C)C(=O)NC(C)C(=O)OC(C)(C)C (stereo not given)
Reply: 650

###

tested on: Vero; experiment: Minimum cytotoxic concentration required to cause a microscopically detectable alteration of normal cell morphology and show antiviral activity in african green monkey (Vero B) cells; type: functional; conditions: Chlorocebus sabaeus
Consider the following compounds; for each one, report its MCC.

Some solved entries appear below for comparison.
C[C@H](NC(=O)[C@H](C)NC(=O)[C@H](C)NC(=O)c1cc(NC(=O)c2cc(NC(=O)CNC(=N)N)cn2C)cn1C)C(=O)O : > 400 µg/mL
Cn1cc(NC(=O)c2cc([N+](=O)[O-])cn2C)cc1C(=O)NCCCNCCCCN : > 400 µg/mL

Batch of 5 compounds: report MCC for each.
1. CC(NC(=O)c1cc(NC(=O)c2cc(NC(=O)CNC(=N)N)cn2C)cn1C)C(=O)NC(C)C(=O)OC(C)(C)C (centres undefined)
2. Cn1cc([N+](=O)[O-])cc1C(=O)O
3. Cn1c(C(=O)NCCC#N)ccc1[N+](=O)[O-]
4. CC(NC(=O)c1cc(NC(=O)c2cc(NC(=O)CNC(=N)N)cn2C)cn1C)C(=O)OC(C)(C)C (centres undefined)
5. Cn1cc(NC(=O)c2cc([N+](=O)[O-])cn2C)cc1C(=O)NCCC(=N)N

Reply:
1: > 400 µg/mL; 2: > 400 µg/mL; 3: > 400 µg/mL; 4: > 400 µg/mL; 5: 400 µg/mL

Parameter requested: MCC. Apply to each item below.
1. Nc1ncnc2c1ncn2C[C@H](O)CO [(S)-DHPA]
2. Cn1cc([N+](=O)[O-])cc1C(=O)NCCC(=N)N
3. C[C@H](NC(=O)c1cc(NC(=O)c2cc(NC(=O)CNC(=N)N)cn2C)cn1C)C(=O)N[C@@H](C)C(=O)N[C@@H](C)C(=O)OC(C)(C)C
4. CC(NC(=O)c1cc(NC(=O)c2cc([N+](=O)[O-])cn2C)cn1C)C(=O)OC(C)(C)C (centres undefined)
5. Cn1cc(NC(=O)c2cc(NC(=O)CNC(=N)N)cn2C)cc1C(=O)NCCC(=N)N
6. Nc1nccc2c1ncn2[C@@H]1C[C@H](CO)[C@@H](O)[C@H]1O
7. Nc1ncnc2c1ccn2[C@@H]1O[C@H](CO)[C@@H](O)[C@H]1O
8. COC(=O)c1cc(NC(=O)c2cc([N+](=O)[O-])cn2C)cn1C

Reply:
1: > 400 µg/mL; 2: > 400 µg/mL; 3: > 400 µg/mL; 4: > 100 µg/mL; 5: > 400 µg/mL; 6: > 400 µg/mL; 7: > 0.4 µg/mL; 8: > 40 µg/mL

Please state, for each entry, its recorded MCC.
1. CC(NC(=O)C(C)NC(=O)c1cc(NC(=O)c2cc(NC(=O)CNC(=N)N)cn2C)cn1C)C(=O)O (centres undefined)
2. CC(NC(=O)c1cc(NC(=O)c2cc([N+](=O)[O-])cn2C)cn1C)C(=O)NC(C)C(=O)OC(C)(C)C (centres undefined)
3. Cn1cc([N+](=O)[O-])cc1C(=O)NCCCNCCCCN
4. Cn1cc(NC(=O)c2cc([N+](=O)[O-])cn2C)cc1C(=O)NCCC#N
5. NC(=O)c1ncn([C@@H]2O[C@H](CO)[C@@H](O)[C@H]2O)n1
6. Cn1c(C(=O)NCCC(=N)N)ccc1[N+](=O)[O-]
7. Cn1cc([N+](=O)[O-])cc1C(=O)NCCC#N
8. Cn1c(C(=O)O)ccc1[N+](=O)[O-]

Reply:
["> 400 µg/mL", "> 200 µg/mL", "> 400 µg/mL", "> 40 µg/mL", "> 400 µg/mL", "> 400 µg/mL", "> 400 µg/mL", "> 400 µg/mL"]

###

tested on: Nucleic Acid; assay: Ratio of association constant of poly (dA-dT) and poly (dG-dC); format: nucleic-acid assay
For each entry below, report its Ratio value.

Please review the following examples before continuing.
CC(NC(=O)c1cc(NC(=O)c2cc(NC(=O)CNC(=N)N)cn2C)cn1C)C(=O)OC(C)(C)C (stereo not drawn) : 0.87
CC(NC(=O)c1cc(NC(=O)c2cc([N+](=O)[O-])cn2C)cn1C)C(=O)NC(C)C(=O)OC(C)(C)C (stereo not drawn) : 0.033
Cn1cc(NC(=O)c2cc(NC(=O)CNC(=N)N)cn2C)cc1C(=O)NCCC(=N)N : 23500

I'm hoping you can list Ratio for every compound here, please.
1. Cn1cc(NC(=O)c2cc(NC(=O)CNC(=N)N)cn2C)cc1C(=O)NCCCNCCCCN
2. Cn1cc(NC(=O)c2cc([N+](=O)[O-])cn2C)cc1C(=O)NCCCNCCCCN

Reply:
1. 2.63
2. 5.37

Report Ratio for every entry below.
1. C[C@H](NC(=O)c1cc(NC(=O)c2cc(NC(=O)CNC(=N)N)cn2C)cn1C)C(=O)N[C@@H](C)C(=O)N[C@@H](C)C(=O)OC(C)(C)C
2. CC(NC(=O)c1cc(NC(=O)c2cc(NC(=O)CNC(=N)N)cn2C)cn1C)C(=O)NC(C)C(=O)OC(C)(C)C (stereo not drawn)
3. Cn1cc(NC(=O)CNC(=N)N)cc1C(=O)NCCCNCCCCN

Reply:
6.06
6.29
5.26
